assay: Lipophilicity, log D of the compound at pH 7.4; conditions: buffer
Below, each of the compounds is paired with its reported logD value.
measuredMetric: logD

1) COCCn1cc(C(=O)c2cccc3ccccc23)c2cccnc21; 3.57
2) Cc1c(C(=O)c2cccc3ccccc23)c2cccc3c2n1[C@H](CN1CCOCC1)CO3; 4.08
3) CCCCCn1cc(C(=O)c2ccccc2-c2ccccc2)c2ccccc21; > 5
4) CCCCCn1cc(C(=O)c2cccc3ccccc23)c2cccnc21; > 5
5) CCCCCCC(C)(C)c1ccc([C@@H]2C[C@H](O)CC[C@H]2CCCO)c(O)c1; > 5
6) COCCn1cc(C(=O)c2cccc3ccccc23)c2ccncc21; 3.13
7) COCCn1cc(C(=O)c2cccc(-c3ccccc3)c2)c2ccccc21; 4.4
8) CCCCCn1cc(C(=O)c2cccc3ccccc23)c2ccncc21; 4.72
9) COCCn1cc(C(=O)Nc2cccc3ccccc23)c2ccccc21; 2.94
10) CCCCCn1cc(C(=O)Nc2cccc3ccccc23)c2ccccc21; > 5
